- Test system: MCF7
- test-details: Cytotoxicity against human MCF7 cells assessed as inhibition of cell proliferation after 48 hrs by MTT assay
- Type: functional, cell-based
- measurement-parameters: Homo sapiens, MCF7, 48 h

# compound, experimental-system, IC50
measured = [
    ("COc1ccc(P2(=S)NC(=S)C3=C(N2)Oc2c(c(=S)oc4ccccc24)C3c2cccnc2)cc1 (configuration not stated)", "MCF7", "> 100 µM"),
    ("COc1ccc(P2(=S)NC(=S)C3=C(N2)Oc2c(c(=S)oc4ccccc24)C3c2ccc(OC)c(OC)c2)cc1 (single isomer, unassigned; diastereomer 1)", "MCF7", "> 100 µM"),
    ("COc1ccc(P2(=S)NC(=S)C3=C(N2)Oc2c(c(=S)oc4ccccc24)C3c2ccc(Cl)cc2)cc1 (single isomer, unassigned; diastereomer 1)", "MCF7", "32 µM"),
    ("COc1ccc(P2(=S)NC(=S)C3=C(N2)Oc2c(c(=S)oc4ccccc24)C3c2ccccc2)cc1 (single isomer, unassigned; diastereomer 1)", "MCF7", "> 100 µM"),
    ("COc1ccc(C2C3=C(NP(=S)(c4ccc(OC)cc4)NC3=S)Oc3c2c(=S)oc2ccccc32)cc1 (single isomer, unassigned; diastereomer 1)", "MCF7", "> 100 µM"),
    ("COc1cccc2c1C(=O)c1c(O)c3c(c(O)c1C2=O)C[C@@](O)(C(=O)CO)C[C@@H]3O[C@H]1C[C@H](N)[C@H](O)[C@H](C)O1", "MCF7", "0.38 µM"),
    ("COc1ccc(P2(=S)NC(=S)C3=C(N2)Oc2c(c(=S)oc4ccccc24)C3c2ccccn2)cc1 (configuration not stated)", "MCF7", "> 100 µM"),
]

---

- experimental-system: Tyrosinase (Agaricus bisporus) (UniProt O42713)
- Sequence (O42713 whole entry): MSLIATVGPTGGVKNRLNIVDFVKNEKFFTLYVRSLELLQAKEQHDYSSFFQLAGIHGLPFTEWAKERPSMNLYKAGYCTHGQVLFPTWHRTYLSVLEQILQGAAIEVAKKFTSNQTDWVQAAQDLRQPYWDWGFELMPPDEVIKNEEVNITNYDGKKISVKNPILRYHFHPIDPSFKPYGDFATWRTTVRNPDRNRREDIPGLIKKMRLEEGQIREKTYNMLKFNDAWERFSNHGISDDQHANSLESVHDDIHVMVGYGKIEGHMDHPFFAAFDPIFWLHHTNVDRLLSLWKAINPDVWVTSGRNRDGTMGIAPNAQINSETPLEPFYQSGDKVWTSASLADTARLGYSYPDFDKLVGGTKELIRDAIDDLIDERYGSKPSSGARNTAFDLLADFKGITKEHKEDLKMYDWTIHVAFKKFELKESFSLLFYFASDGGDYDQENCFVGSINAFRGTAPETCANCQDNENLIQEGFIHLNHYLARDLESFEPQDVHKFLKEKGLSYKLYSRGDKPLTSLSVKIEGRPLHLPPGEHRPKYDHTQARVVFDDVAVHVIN
- test-details: Inhibition of mushroom tyrosinase using L-tyrosine as substrate assessed as dopachrome formation at 100 uM measured for 10 mins by spectrophotometric method relative to control

# compound, experimental-system, inhibition
measured = [
    ("COc1ccc(P2(=S)NC(=S)C3=C(N2)Oc2c(c(=S)oc4ccccc24)C3c2ccc(OC)c(OC)c2)cc1 (single isomer, unassigned; diastereomer 2)", "Tyrosinase (Agaricus bisporus) (UniProt O42713)", "56.8%"),
    ("CCCCOc1ccc(C2C3=C(NP(=S)(c4ccc(OC)cc4)NC3=S)Oc3c2c(=S)oc2ccccc32)cc1 (single isomer, unassigned; diastereomer 2)", "Tyrosinase (Agaricus bisporus) (UniProt O42713)", "88.7%"),
    ("CCCCOc1ccc(C2C3=C(NP(=S)(c4ccc(OC)cc4)NC3=S)Oc3c2c(=S)oc2ccccc32)cc1 (single isomer, unassigned; diastereomer 1)", "Tyrosinase (Agaricus bisporus) (UniProt O42713)", "55%"),
    ("COc1ccc(P2(=S)NC(=S)C3=C(N2)Oc2c(c(=S)oc4ccccc24)C3c2ccccn2)cc1 (stereo unspecified)", "Tyrosinase (Agaricus bisporus) (UniProt O42713)", "97.4%"),
    ("COc1ccc(P2(=S)NC(=S)C3=C(N2)Oc2c(c(=S)oc4ccccc24)C3c2ccc(Cl)cc2)cc1 (single isomer, unassigned; diastereomer 2)", "Tyrosinase (Agaricus bisporus) (UniProt O42713)", "16.1%"),
]
